Test system: XF498
Test: NCI tumour cell line growth inhibition, 48 h
Active and inactive are the calls of the source. Rule as the data show it: active = GI50 up to about 1.1 µM and inactive = higher.
measured parameter: GI50

Task: Identify GI50 associated with the molecule `CC(=O)N(C)OC(=O)CC(=O)c1ccccc1`
Output: > 100 µM (inactive)

Task: Identify GI50 associated with the molecule N#CC1(Cc2ccccc2Cl)c2ccccc2C=CN1C(=O)c1ccccc1 (stereo not given)
Output: 40.1 µM (inactive)

Task: Identify GI50 associated with the molecule `CC1=CC(C)(C)N=C2SC(c3ccc(Cl)cc3)=NN12`
Output: 14.2 µM (inactive)

Task: Identify GI50 associated with the molecule `Oc1ccc(O)c(-n2cccn2)c1`
Output: > 100 µM (inactive)

Task: Identify GI50 associated with the molecule `CSc1ccc(/C=C2\CNC/C(=C\c3ccc(SC)cc3)C2=O)cc1`
Output: 8 µM (inactive)

====

Test system: SK-MEL-5
Assay: NCI tumour cell line growth inhibition, 48 h
The source made the active and inactive calls. No stated cut-off is given here; in the data, active = GI50 up to about 1.1 µM and inactive = higher.
Field 'call' accepts Y (active), N (inactive)

Task: Hi, sorry to bother you, what did the test record for `CCOC(=O)c1c2c(n3ccccc13)C(=O)c1ccccc1C2=O` ?
Output: N

Task: Hi, sorry to bother you, what did the test record for `O=c1cnn(C/C=C/CP(=O)(O)O)c(=O)[nH]1` ?
Output: N

Task: Hi, sorry to bother you, what did the test record for Cc1cc2c(s1)C(N)CC2=O (stereo not drawn) ?
Output: N

Task: Hi, sorry to bother you, what did the test record for `COc1c2cc(C(C)(C)C)cc1Cc1cccc(c1O)Cc1cc(C(C)(C)C)cc(c1OC)Cc1cccc(c1O)Cc1cc(C(C)(C)C)cc(c1OC)Cc1cccc(c1O)C2` ?
Output: N

Task: Hi, sorry to bother you, what did the test record for `O=c1sc2c(s1)SSSSS2` ?
Output: N

Task: Hi, sorry to bother you, what did the test record for `O=C1C=Cc2c(I)sc(I)c21` ?
Output: N

Task: Hi, sorry to bother you, what did the test record for `O=c1c2ccccc2n2nnc3ccc(NCCNCCO)c1c32` ?
Output: N

Task: Hi, sorry to bother you, what did the test record for CC(=O)O[C@H]1C(=O)[C@@]2(C)C(C(OC(=O)c3ccccc3)[C@]3(O)C[C@H](OC(=O)C(OC(=O)CCCC(=O)NCCCN(C)C)C(NC(=O)c4ccccc4)c4ccccc4)C(C)=C1C3(C)C)C1(OC(C)=O)COC1C[C@@H]2O (stereo partly drawn) ?
Output: Y

Task: Hi, sorry to bother you, what did the test record for COC(=O)C(CCc1ccccc1I)C1=CCC2(CC1)OCCO2 (stereo not drawn) ?
Output: N

Task: Hi, sorry to bother you, what did the test record for COC(=O)CCC1(C)C2CCC1(C)/C(=N/O)C2 (stereo not drawn) ?
Output: N

Task: Hi, sorry to bother you, what did the test record for `COCCN(CCNC(=O)c1cccc2c(N)c3cccc(C)c3nc12)CCOC` ?
Output: Y

Task: Hi, sorry to bother you, what did the test record for `COc1ccc(-n2c(N)c(C#N)c(C#N)c2-c2cccc([N+](=O)[O-])c2)cc1` ?
Output: N

Task: Hi, sorry to bother you, what did the test record for `CNC(=S)/C(C#N)=C(\N)N1CCCC1` ?
Output: N

Task: Hi, sorry to bother you, what did the test record for `N#C/C(N)=C(C#N)/N=C/Nc1ccccc1N` ?
Output: N

Task: Hi, sorry to bother you, what did the test record for `N#CCCN(C(=O)Nc1ccc(NC(=O)N(CCC#N)c2ccccc2)cc1)c1ccccc1` ?
Output: N

Task: Hi, sorry to bother you, what did the test record for CCc1cc(Cc2cc(CC)c(NC(=O)C3=CC(=O)CC(c4ccc(OC)cc4)O3)c(CC)c2Cl)c(Cl)c(CC)c1NC(=O)C1=CC(=O)CC(c2ccc(OC)cc2)O1 (stereo not drawn) ?
Output: N

Task: Hi, sorry to bother you, what did the test record for CN(C)CC(O)c1ccc(Cl)c2ccccc12 (stereo not drawn) ?
Output: N

Task: Hi, sorry to bother you, what did the test record for Cn1c(=O)c2c(nc(N)n2C2OC(CO)C(O)C2O)n(C)c1=O (stereo not drawn) ?
Output: N

Task: Hi, sorry to bother you, what did the test record for `CCOc1ccc(NC(=O)C(=O)Nn2c(N)nnc2N)cc1` ?
Output: N

Task: Hi, sorry to bother you, what did the test record for CC1(C)Oc2ccc3c(=O)cc(-c4cccs4)oc3c2C1C(=O)O (stereo not drawn) ?
Output: N

Task: Hi, sorry to bother you, what did the test record for `O=C1C(SCCO)=C(SCCO)C(=O)c2ccccc21` ?
Output: Y

Task: Hi, sorry to bother you, what did the test record for COc1ccc(C2(CC(C)C)CCN(S(=O)(=O)c3ccc(C)cc3)C2)cc1OC (stereo not drawn) ?
Output: N

Task: Hi, sorry to bother you, what did the test record for `COc1c(-c2ccc(F)cc2)oc2c(CC(=O)O)cccc2c1=O` ?
Output: N

Task: Hi, sorry to bother you, what did the test record for `O=C(/C=C/c1ccc(-c2ccccc2)cc1)NCc1ccc(C(=O)NCc2ccccc2)cc1` ?
Output: N

Task: Hi, sorry to bother you, what did the test record for `C[n+]1[n-]o/c(=N\N=O)c1-c1cc(-c2/c(=N/N=O)o[n-][n+]2C)cc(-c2/c(=N\N=O)o[n-][n+]2C)c1` ?
Output: N

Task: Hi, sorry to bother you, what did the test record for `CN(C)CCNC(=O)c1cccc2[nH]c(-c3ccncc3)nc12` ?
Output: N

Task: Hi, sorry to bother you, what did the test record for `COC(=O)c1ccc2[nH]c3c(c2c1)CC(=O)Nc1ccccc1-3` ?
Output: N

Task: Hi, sorry to bother you, what did the test record for Cc1ccc2c(c1C)C(=O)C1(Cc3cc4c(cc3C1=O)CCC4)C2 (stereo not drawn) ?
Output: N

Task: Hi, sorry to bother you, what did the test record for `CSC(SC)=C(C#N)C(=O)Nc1cccc(Cl)c1` ?
Output: N

Task: Hi, sorry to bother you, what did the test record for `NNC(=O)c1nn[nH]c1C(=O)NN` ?
Output: N

Task: Hi, sorry to bother you, what did the test record for `CC(=O)OCCOCn1c2c(c(=S)[nH]c1=O)CCC2` ?
Output: N

Task: Hi, sorry to bother you, what did the test record for `O=S(=O)(O)c1cccc2ccc(O)c(/N=N\c3ccc(S(=O)(=O)c4ccc(/N=N/c5c(O)ccc6cccc(S(=O)(=O)O)c56)cc4)cc3)c12` ?
Output: N

Task: Hi, sorry to bother you, what did the test record for `Sc1nnc(COc2ccc(Cl)cc2)o1` ?
Output: N

Task: Hi, sorry to bother you, what did the test record for `Cc1ccc(/N=N/C(=O)NNc2ccc(C)cc2Br)c(Br)c1` ?
Output: N

Task: Hi, sorry to bother you, what did the test record for `COc1ccc(C(=O)c2cc(OC)c(OC)c(OC)c2)cc1` ?
Output: Y

Task: Hi, sorry to bother you, what did the test record for CC1CCC(C(C)C)C(O[C@@H]2OC(=O)C[C@@H]2Sc2ccccc2)C1 (stereo partly drawn) ?
Output: N

Task: Hi, sorry to bother you, what did the test record for `CS(=O)(=O)c1ccc2nc(-c3ccc(O)cc3)sc2c1` ?
Output: N

Task: Hi, sorry to bother you, what did the test record for `CN1CCc2c(sc3ncn(Nc4ccc(F)cc4)c(=N)c23)C1` ?
Output: N

Task: Hi, sorry to bother you, what did the test record for CC1(C)C2CC3C(C)(C2)C31c1cc(Cl)ccc1N (stereo not drawn) ?
Output: N

Task: Hi, sorry to bother you, what did the test record for c1ccc(-c2cccc(-c3ccccn3)n2)nc1 [TERPYRIDINE] ?
Output: Y

Task: Hi, sorry to bother you, what did the test record for `CCCc1cc(=O)oc2c(C=O)c(O)cc(O)c12` ?
Output: N

Task: Hi, sorry to bother you, what did the test record for O=C1CCC(c2nc3cc(Cl)ccc3o2)C(=O)N1 (stereo not drawn) ?
Output: N

Task: Hi, sorry to bother you, what did the test record for O=C(O)C(CS)NCc1c2ccccc2[n+]([O-])c2ccccc12 (stereo not drawn) ?
Output: N

====

Tested on: HT-29
Assay: NCI tumour cell line growth inhibition, 48 h
Calls of active or inactive are those of the source. Rule as the data show it: active = GI50 up to about 1.1 µM and inactive = higher.
Field 'call' accepts yes (1) (active), no (0) (inactive)

Task: Hi, sorry to bother you, what did the test record for CC1(C)Oc2ccc3c(=O)cc(-c4cccs4)oc3c2C1C(=O)O (centres undefined) ?
Output: no (0)

Task: Hi, sorry to bother you, what did the test record for `CCCCCC(=O)N[C@@H](c1ccco1)[C@@H](O)C(=O)O[C@H]1C[C@@]2(O)[C@@H](OC(=O)c3ccccc3)[C@@H]3[C@]4(OC(C)=O)CO[C@@H]4C[C@H](O)[C@@]3(C)C(=O)[C@H](OC(C)=O)C(=C1C)C2(C)C` ?
Output: yes (1)

Task: Hi, sorry to bother you, what did the test record for `Cc1ccn2c(=O)cc(CN3CCOCC3)nc2c1` ?
Output: no (0)

Task: Hi, sorry to bother you, what did the test record for `COc1ccc(CNc2nc3ccccc3nc2-c2cccs2)cc1OC` ?
Output: no (0)

Task: Hi, sorry to bother you, what did the test record for `COc1ccc(C(=O)c2cc(OC)c(OC)c(OC)c2)cc1` ?
Output: yes (1)

Task: Hi, sorry to bother you, what did the test record for `Cc1ccc2cc3c(ccc4ccccc43)c3c2c1CC3` ?
Output: no (0)

Task: Hi, sorry to bother you, what did the test record for OCC1CCCCN1Cc1nc2cc(Cl)ccc2[nH]1 (centres undefined) ?
Output: no (0)

Task: Hi, sorry to bother you, what did the test record for `C=CC[P@]1(=O)O[C@H](c2ccccc2)[C@H](C)N1C` ?
Output: no (0)

Task: Hi, sorry to bother you, what did the test record for COc1cc(C2c3cc4c(cc3[C@@H](Nc3ccccc3)C3CO[C@@H](OC)[C@H]23)OCO4)cc(OC)c1O (some centres undefined) ?
Output: no (0)

Numbers sourced from ChEMBL document CHEMBL1201862.
